List of koff values.
- targetOrSystem: T1, recombinant extracellular portion of human IGF1R (IGF1R^933-His) (human, UniProt P08069 31-933)
- T1 construct: It contains a furin cleavage site (RKRR) between the alpha and beta subunits, so the secreted protein may be two disulphide-linked chains; Immobilized by amine coupling on a CM5 chip; also called recombinant human IGF1R; human IGF1R fragment; not shown: His tag from vector pCDN4/myc-His
- experimentNotes: SPR, Biacore 3000, human IGF1R immobilized on CM5, VHH as analyte, 1:1 model
Numeric only. Scale: s⁻¹

Known results for binders:
1) IGF1R-3_H2 (VHH, Humanized variant of IGF1R-3, monomeric VHH; not shown: C-terminal tag from expression vector pSJF2H (protein purified by IMAC)) VHH: QVQLVESGGGLVQPGGSLRLSCAASEYPSNFYAMSWVRQAPGKGLEWVAGVSRDGLTTLYADSVKGRFTMSRDNSKNTVYLQMNSLRAEDTAVYYCAIVITGVWNKVDVNSRSYHYWGQGTLVTVSS :: 0.00072
2) IGF1R-3_H1 (VHH, Humanized variant of IGF1R-3, monomeric VHH; not shown: C-terminal tag from expression vector pSJF2H (protein purified by IMAC)) VHH: EVQLVESGGGLVQPGGSLRLSCAASEYPSNFYAMSWVRQAPGKGLEWVSGVSRDGLTTLYADSVKGRFTISRDNSKNTLYLQMNSLRAEDTAVYYCAIVITGVWNKVDVNSRSYHYWGQGTLVTVSS :: 0.0023
3) IGF1R-3_H5 (VHH, Humanized variant of IGF1R-3, monomeric VHH; not shown: C-terminal tag from expression vector pSJF2H (protein purified by IMAC)) VHH: EVQLVESGGGLVQPGGSLRLSCAASEYPSNFYAMSWFRQAPGKEREFVSGVSRDGLTTLYADSVKGRFTISRDNSKNTLYLQMNSLRAEDTAVYYCAIVITGVWNKVDVNSRSYHYWGQGTLVTVSS :: 0.0025
4) IGF1R-3 VHH (VHH, Llama VHH expressed in E. coli TG1 from pSJF2H and tested as monomer; also called anti-IGF1R VHH IGF1R-3; IGF1R VHH; not shown: C-terminal tag from expression vector pSJF2H (protein purified by IMAC)) VHH: QVKLEESGGGLVQAGGSLRLSCVASEYPSNFYAMSWFRQAPGKEREFVAGVSRDGLTTLYADSVKGRFTMSRDNAKNTVDLQMNSVKAEDTAVYYCAIVITGVWNKVDVNSRSYHYWGQGTQVTVSS :: 0.00013

Consider the additional binder presented here.
// query Find the recorded koff belonging to IGF1R-3_H4 (VHH, Humanized variant of IGF1R-3, monomeric VHH; not shown: C-terminal tag from expression vector pSJF2H (protein purified by IMAC)) VHH: QVQLVESGGGLVQPGGSLRLSCAASEYPSNFYAMSWFRQAPGKEREFVAGVSRDGLTTLYADSVKGRFTMSRDNSKNTVYLQMNSLRAEDTAVYYCAIVITGVWNKVDVNSRSYHYWGQGTLVTVSS and report it.
// result 0.00055
